Please go through the items and note down their % activity.
measurement target: ALK4(h) (Homo sapiens)
Sequence (P36896 24-505): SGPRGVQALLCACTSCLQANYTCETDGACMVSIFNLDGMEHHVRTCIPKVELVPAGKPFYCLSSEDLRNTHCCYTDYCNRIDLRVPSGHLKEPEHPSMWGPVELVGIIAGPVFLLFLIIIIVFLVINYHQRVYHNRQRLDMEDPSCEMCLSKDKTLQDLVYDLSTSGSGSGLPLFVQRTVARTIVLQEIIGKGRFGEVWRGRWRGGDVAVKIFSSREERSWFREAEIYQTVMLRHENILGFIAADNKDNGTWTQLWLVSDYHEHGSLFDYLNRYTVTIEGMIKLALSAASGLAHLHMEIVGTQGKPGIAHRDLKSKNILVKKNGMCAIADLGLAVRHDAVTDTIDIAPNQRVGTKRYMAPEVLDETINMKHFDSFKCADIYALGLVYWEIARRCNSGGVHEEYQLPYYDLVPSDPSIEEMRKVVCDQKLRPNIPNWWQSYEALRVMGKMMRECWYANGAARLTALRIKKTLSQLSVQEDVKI
assay: Kinase Profiling Assay
Type: biochemical
condition label: 100 μM

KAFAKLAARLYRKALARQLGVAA [MMI-0400] = 130%
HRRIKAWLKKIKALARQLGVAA [MMI-0500] = 81%
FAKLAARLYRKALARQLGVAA [MMI-0300] = 140%

Shift focus to the following entry.
In: // lookup % activity | system=ALK4(h) (Homo sapiens) | key= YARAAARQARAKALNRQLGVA [MMI-0200]
Out: 152%

----------
measurement target: Met(Y1248C)(h) (Homo sapiens, UniProt P08581, Y1230C)
assay: Kinase Profiling Assay
Assay type: biochemical
condition label: 100 μM
experimental endpoint: % activity

Sample records with % activity:
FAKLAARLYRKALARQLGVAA [MMI-0300] = 84%
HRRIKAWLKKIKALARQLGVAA [MMI-0500] = 73%
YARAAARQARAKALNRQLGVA [MMI-0200] = 141%

Switching to the query record.
In: Need % activity of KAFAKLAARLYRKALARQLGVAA [MMI-0400] , thanks.
Out: 36%

----------
measurement target: MAPKAP-K2(h) (Homo sapiens)
Sequence (P49137 whole entry): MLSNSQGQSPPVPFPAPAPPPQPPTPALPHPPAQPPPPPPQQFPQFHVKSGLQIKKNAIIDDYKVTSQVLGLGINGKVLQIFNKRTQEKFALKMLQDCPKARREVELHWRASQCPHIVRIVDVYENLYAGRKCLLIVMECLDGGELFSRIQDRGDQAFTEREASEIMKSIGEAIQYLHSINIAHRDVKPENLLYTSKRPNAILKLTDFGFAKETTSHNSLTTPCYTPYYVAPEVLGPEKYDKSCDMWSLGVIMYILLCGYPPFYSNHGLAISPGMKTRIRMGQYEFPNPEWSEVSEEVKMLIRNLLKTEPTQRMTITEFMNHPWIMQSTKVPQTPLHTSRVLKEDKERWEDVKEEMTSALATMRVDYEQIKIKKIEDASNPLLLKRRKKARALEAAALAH
assay: Kinase Profiling Assay
Assay type: biochemical
condition label: 100 μM
experimental endpoint: % activity (%)
Give bare numbers, in %.

A selection of reference data follows.
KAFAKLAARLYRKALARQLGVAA [MMI-0400] = 5
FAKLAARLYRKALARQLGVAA [MMI-0300] = 5
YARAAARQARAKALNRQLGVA [MMI-0200] = 35

In: Enter reported % activity observed with MAPKAP-K2(h) (Homo sapiens) for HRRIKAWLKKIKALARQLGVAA [MMI-0500]
Out: 9

----------
measurement target: PKD2(h) (Homo sapiens, UniProt Q9BZL6)
Sequence (Q9BZL6 1-878): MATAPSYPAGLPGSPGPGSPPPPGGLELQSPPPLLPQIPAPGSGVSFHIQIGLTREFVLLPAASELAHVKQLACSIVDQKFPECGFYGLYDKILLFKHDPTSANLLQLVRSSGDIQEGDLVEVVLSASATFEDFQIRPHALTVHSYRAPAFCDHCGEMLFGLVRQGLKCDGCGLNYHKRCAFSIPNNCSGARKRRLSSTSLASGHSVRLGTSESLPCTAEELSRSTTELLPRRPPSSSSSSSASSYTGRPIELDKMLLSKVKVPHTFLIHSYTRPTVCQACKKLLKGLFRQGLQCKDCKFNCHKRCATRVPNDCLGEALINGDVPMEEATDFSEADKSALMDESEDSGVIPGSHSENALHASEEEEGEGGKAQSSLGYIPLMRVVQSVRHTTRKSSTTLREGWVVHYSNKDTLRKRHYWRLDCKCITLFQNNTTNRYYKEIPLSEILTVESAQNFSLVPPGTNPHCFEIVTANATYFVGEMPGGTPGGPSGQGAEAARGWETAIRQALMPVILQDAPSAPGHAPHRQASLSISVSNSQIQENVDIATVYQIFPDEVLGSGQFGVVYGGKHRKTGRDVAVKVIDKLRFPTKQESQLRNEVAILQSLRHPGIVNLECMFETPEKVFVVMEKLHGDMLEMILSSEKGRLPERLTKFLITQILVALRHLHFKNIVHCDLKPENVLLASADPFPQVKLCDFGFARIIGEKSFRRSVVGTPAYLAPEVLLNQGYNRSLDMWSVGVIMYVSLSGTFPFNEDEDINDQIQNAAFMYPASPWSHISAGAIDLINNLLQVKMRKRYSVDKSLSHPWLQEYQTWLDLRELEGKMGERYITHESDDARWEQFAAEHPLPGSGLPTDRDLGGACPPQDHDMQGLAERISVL
assay: Kinase Profiling Assay
Format: biochemical
condition label: 100 μM
experimental endpoint: % activity (%)
Numbers only, in %.

Would you please look over these solved cases?
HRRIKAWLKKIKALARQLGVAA [MMI-0500] = 10
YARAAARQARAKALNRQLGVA [MMI-0200] = 78
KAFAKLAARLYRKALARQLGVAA [MMI-0400] = 25

--- query ---
In: Need % activity of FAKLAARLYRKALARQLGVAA [MMI-0300] , thanks.
Out: 33
